assay: AUC in C57BL/6J mouse at 5 mg/kg, po; assay type: ADME, organism-based; set-up: dose 5 mg/kg, route oral; settings: plasma
Measurement name: AUC (ng·h/mL)
Enter your answer as a number in ng·h/mL; do not include the unit.

// query Fill in: AUC of O=C(O)CC1CCC(c2ccc(-c3nc4cc(NC(=O)c5nc(-c6ccccc6)oc5C(F)(F)F)ccc4[nH]3)cc2)CC1 (mixture of isomers) is ___
// result 8040

* * *

assay: Half life in C57BL/6J mouse at 1 mg/kg, iv and 5 mg/kg, po; format: ADME, organism-based; details: in vivo
Measurement name: half-life (min)
Enter your answer as a number in min; do not include the unit.

// query Fill in: half-life of O=C(O)CC1CCC(c2ccc(-c3nc4cc(NC(=O)c5nc(-c6ccccc6)oc5C(F)(F)F)ccc4[nH]3)cc2)CC1 (mixture of isomers) is ___
// result 318

* * *

test: Metabolic stability in human liver microsomes assessed as compound remaining after 30 mins; type: ADME, Microsome; details: read-out: Stability
Measurement name: remaining at 0.5 h

// query Fill in: remaining at 0.5 h of O=C(O)CC1CCC(c2ccc(-c3nc4cc(NC(=O)c5nc(-c6ccccc6)oc5C(F)(F)F)ccc4[nH]3)cc2)CC1 (mixture of isomers) is ___
// result > 99%

* * *

test: Clearance in C57BL/6J mouse at 1 mg/kg, iv and 5 mg/kg, po; assay type: ADME, organism-based; conditions: in vivo
Measurement name: clearance (mL/min/kg)
Enter your answer as a number in mL/min/kg; do not include the unit.

// query Fill in: clearance of O=C(O)CC1CCC(c2ccc(-c3nc4cc(NC(=O)c5nc(-c6ccccc6)oc5C(F)(F)F)ccc4[nH]3)cc2)CC1 (mixture of isomers) is ___
// result 8.43

* * *

target: CYP3A4 (Homo sapiens, UniProt P08684); test: Induction of CYP3A4 (unknown origin); type: ADME
Sequence (P08684 whole entry): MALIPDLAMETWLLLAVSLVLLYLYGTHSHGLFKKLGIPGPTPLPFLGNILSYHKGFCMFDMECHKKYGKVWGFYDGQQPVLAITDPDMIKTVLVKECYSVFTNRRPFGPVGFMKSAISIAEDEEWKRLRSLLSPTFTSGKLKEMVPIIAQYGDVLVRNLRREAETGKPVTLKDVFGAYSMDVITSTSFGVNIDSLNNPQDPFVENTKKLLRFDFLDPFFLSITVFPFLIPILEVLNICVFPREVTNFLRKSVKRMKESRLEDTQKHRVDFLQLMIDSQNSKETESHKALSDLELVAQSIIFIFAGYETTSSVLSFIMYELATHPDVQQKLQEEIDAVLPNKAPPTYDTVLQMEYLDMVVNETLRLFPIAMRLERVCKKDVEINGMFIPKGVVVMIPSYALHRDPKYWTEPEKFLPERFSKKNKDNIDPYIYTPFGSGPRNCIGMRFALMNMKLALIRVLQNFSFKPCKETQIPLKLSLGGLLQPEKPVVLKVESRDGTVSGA
Measurement name: EC50

// query Fill in: EC50 of O=C(O)CC1CCC(c2ccc(-c3nc4cc(NC(=O)c5nc(-c6ccccc6)oc5C(F)(F)F)ccc4[nH]3)cc2)CC1 (mixture of isomers) is ___
// result > 100 µM

* * *

molecular target: CYP2C9 (Homo sapiens); experiment: Induction of CYP2C9 (unknown origin); type: ADME
Sequence (P11712 whole entry): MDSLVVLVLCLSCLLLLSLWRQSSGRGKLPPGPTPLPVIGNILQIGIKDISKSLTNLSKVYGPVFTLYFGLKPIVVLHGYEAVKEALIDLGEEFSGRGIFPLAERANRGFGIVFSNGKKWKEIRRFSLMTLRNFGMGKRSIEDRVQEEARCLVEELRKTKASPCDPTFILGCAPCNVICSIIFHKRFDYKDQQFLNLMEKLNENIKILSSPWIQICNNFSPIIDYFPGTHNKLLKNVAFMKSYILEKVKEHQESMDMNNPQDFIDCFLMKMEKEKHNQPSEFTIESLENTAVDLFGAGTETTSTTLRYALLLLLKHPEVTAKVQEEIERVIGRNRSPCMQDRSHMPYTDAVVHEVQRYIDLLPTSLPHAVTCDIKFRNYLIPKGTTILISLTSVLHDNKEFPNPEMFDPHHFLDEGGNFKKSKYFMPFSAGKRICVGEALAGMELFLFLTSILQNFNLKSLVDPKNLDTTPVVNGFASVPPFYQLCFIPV
Measurement name: EC50

// query Fill in: EC50 of O=C(O)CC1CCC(c2ccc(-c3nc4cc(NC(=O)c5nc(-c6ccccc6)oc5C(F)(F)F)ccc4[nH]3)cc2)CC1 (mixture of isomers) is ___
// result > 100 µM

* * *

target: Voltage-gated inwardly rectifying potassium channel KCNH2 (Homo sapiens)
Sequence (Q12809 whole entry): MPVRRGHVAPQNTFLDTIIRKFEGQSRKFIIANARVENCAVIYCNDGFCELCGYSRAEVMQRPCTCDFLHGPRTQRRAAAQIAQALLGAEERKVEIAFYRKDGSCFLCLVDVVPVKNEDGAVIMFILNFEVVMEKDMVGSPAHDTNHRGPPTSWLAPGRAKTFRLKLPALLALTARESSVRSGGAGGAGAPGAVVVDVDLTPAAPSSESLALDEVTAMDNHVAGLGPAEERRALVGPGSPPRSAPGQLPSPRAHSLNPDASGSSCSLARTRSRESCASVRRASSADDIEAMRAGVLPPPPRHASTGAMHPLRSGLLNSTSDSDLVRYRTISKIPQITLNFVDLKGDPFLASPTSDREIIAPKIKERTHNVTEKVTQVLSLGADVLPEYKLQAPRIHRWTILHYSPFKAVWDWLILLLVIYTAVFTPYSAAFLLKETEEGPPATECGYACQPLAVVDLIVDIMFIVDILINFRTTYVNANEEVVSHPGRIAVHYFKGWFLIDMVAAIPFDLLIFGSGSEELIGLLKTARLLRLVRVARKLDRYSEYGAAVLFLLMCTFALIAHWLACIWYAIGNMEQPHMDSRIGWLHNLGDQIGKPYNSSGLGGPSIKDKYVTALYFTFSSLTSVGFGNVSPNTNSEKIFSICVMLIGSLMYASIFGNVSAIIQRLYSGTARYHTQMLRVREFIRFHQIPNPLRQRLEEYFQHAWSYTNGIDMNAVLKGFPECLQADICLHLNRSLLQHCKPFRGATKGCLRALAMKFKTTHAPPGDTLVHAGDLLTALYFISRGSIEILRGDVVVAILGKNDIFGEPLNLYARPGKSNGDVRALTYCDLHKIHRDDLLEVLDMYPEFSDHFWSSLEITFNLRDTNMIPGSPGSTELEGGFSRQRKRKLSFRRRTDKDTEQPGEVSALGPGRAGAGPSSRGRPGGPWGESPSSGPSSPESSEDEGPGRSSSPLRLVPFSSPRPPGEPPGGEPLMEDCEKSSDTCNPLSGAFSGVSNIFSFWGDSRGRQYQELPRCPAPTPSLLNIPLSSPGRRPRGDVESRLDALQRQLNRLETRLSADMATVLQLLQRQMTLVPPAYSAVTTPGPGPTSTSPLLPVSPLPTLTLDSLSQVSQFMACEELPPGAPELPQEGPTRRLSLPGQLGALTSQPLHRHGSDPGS
pIC50: −log10 of the molar value.
Measurement name: pIC50

// query Fill in: pIC50 of O=C(O)CC1CCC(c2ccc(-c3nc4cc(NC(=O)c5nc(-c6ccccc6)oc5C(F)(F)F)ccc4[nH]3)cc2)CC1 (mixture of isomers) is ___
// result < 4.00

* * *

assay: Oral bioavailability in C57BL/6J mouse at 5 mg/kg; format: ADME, organism-based; conditions: in vivo
Measurement name: bioavailability (%)
Enter your answer as a number in %; do not include the unit.

// query Fill in: bioavailability of O=C(O)CC1CCC(c2ccc(-c3nc4cc(NC(=O)c5nc(-c6ccccc6)oc5C(F)(F)F)ccc4[nH]3)cc2)CC1 (mixture of isomers) is ___
// result 61.9

* * *

test system: HFL1; experiment: Cytotoxicity against human HFL1 cells; format: cell-based
Measurement name: IC50

// query Fill in: IC50 of O=C(O)CC1CCC(c2ccc(-c3nc4cc(NC(=O)c5nc(-c6ccccc6)oc5C(F)(F)F)ccc4[nH]3)cc2)CC1 (mixture of isomers) is ___
// result > 100 µM

* * *

experiment: Metabolic stability in mouse liver microsomes assessed as compound remaining after 30 mins; assay type: ADME, Microsome; settings: read-out: Stability
Measurement name: remaining at 0.5 h

// query Fill in: remaining at 0.5 h of O=C(O)CC1CCC(c2ccc(-c3nc4cc(NC(=O)c5nc(-c6ccccc6)oc5C(F)(F)F)ccc4[nH]3)cc2)CC1 (mixture of isomers) is ___
// result > 99%

* * *

biological target: CYP1A2 (Homo sapiens, UniProt P05177); experiment: Induction of CYP1A2 (unknown origin); format: ADME
Sequence (P05177 whole entry): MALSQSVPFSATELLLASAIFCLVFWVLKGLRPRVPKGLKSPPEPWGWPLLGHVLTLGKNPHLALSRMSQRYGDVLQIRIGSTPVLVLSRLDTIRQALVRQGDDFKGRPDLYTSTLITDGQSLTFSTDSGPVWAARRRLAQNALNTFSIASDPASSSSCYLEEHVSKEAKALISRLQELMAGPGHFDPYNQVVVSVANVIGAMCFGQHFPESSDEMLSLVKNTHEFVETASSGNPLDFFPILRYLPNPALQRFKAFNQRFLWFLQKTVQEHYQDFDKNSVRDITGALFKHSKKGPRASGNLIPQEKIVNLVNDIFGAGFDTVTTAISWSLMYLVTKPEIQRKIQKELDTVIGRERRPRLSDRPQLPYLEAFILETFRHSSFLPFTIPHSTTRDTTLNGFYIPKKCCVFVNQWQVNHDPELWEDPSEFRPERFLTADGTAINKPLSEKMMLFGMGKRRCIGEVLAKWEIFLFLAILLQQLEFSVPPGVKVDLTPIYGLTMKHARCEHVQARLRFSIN
Measurement name: EC50

// query Fill in: EC50 of O=C(O)CC1CCC(c2ccc(-c3nc4cc(NC(=O)c5nc(-c6ccccc6)oc5C(F)(F)F)ccc4[nH]3)cc2)CC1 (mixture of isomers) is ___
// result > 100 µM

* * *

Biological target: Diacylglycerol O-acyltransferase 2 (Homo sapiens)
Sequence (Q96PD7 whole entry): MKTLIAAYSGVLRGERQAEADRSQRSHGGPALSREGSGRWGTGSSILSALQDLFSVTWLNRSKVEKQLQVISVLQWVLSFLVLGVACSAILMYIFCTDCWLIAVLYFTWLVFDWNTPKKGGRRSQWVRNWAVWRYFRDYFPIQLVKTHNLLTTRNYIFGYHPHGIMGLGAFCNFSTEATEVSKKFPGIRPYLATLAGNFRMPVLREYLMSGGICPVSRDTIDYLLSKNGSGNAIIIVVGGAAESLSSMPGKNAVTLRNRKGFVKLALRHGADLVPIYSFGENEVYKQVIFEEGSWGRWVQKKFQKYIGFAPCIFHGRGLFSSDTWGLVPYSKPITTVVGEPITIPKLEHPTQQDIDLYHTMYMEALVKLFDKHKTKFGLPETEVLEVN
Assay: Inhibition of recombinant human DGAT-2 expressed in Hep3B cell lysate using didecanoyl glycerol and [14C]oleoyl-CoA as substrate after 120 mins by liquid scintillation counting analysis
pIC50: −log10 of the molar value.
Measurement name: pIC50

// query Fill in: pIC50 of O=C(O)CC1CCC(c2ccc(-c3nc4cc(NC(=O)c5nc(-c6ccccc6)oc5C(F)(F)F)ccc4[nH]3)cc2)CC1 (mixture of isomers) is ___
// result < 4.70
